Just for reference, patent US20200102347A1 is where these values come from.

Recorded kon, one value per entry.
# tested.on: T1, NativeRPtag(large)_with_Tags_and_Cys (Thermoanaerobacter tengcongensis)
# T1 construct: Unlabeled in anisotropy assays; coupled through the engineered N-terminal Cys to SulfoLink agarose or maleimide plates in column, pull-down and ELISA assays
# T1 chain: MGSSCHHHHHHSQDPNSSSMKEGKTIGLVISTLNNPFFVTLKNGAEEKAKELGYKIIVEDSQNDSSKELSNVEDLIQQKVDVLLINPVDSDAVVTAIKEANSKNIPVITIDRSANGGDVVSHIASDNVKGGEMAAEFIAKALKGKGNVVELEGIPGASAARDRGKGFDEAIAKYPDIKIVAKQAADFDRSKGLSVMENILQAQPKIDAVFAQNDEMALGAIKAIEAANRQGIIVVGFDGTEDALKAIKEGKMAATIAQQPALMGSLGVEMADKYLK
# protocol.notes: calculated from koff and Kd
No end group written: not given here. *: point of attachment. RhodamineB = CCN(CC)c1ccc2c(-c3ccccc3C(=O)*)c3ccc(=[N+](CC)CC)cc-3oc2c1
recorded.metric: kon

* RhodamineB-GEKIPNFIPAELKLITKENV [RPtag(small) Cd1] | 183000 M⁻¹ s⁻¹
* RhodamineB-GEKIPNFIPAELKLIT [RPtag(small) Cd5] | 1.83e+06 M⁻¹ s⁻¹
* RhodamineB-KIPNFIPAELKLITKE [RPtag(small) Nd2, Cd3] | 1.37e+06 M⁻¹ s⁻¹
